Sourced from the RNAGym collection of RNA variant scans (doi:10.7554/elife.90254)

B1: LINE1-mini (parent)
chain: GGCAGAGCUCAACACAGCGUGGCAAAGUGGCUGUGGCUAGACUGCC

variants of: B1; test: self-cleavage, relative activity (ratio to wild type); higher = more cleavage; in vitro, sequencing; the parent is a self-cleaving ribozyme
Endpoint Name: self-cleavage
In your answer, state the number alone without any accompanying words.

1. GGCAGAGCUCAACACCCCGUGGCAAAGUGGCUGUGGCUAGACUGCC [A16C G17C]; 0.12
2. GGCAGGGCUCAACACAGCGUGGCAAAAUGGCUGUGGCUAGACUGCC [A6G G27A]; 0.14
3. GGCAGAGCUCAACACAGCGUGACAAAGUGGCUGUGCCUAGACUGCC [G22A G36C]; 0.13
4. GGCAGAGCUCAACACACCGUGGCAAAGUGGCUGUGGCUAGACUACC [G17C G44A]; 0.11
5. GGCAGAGCUCAACACAGGGUGGCAAAGUGGCCGUGGCUAGACUGCC [C18G U32C]; 0.15
6. GGCAGAGCUCAACACAGCGUGACAACGUGGCUGUGGCUAGACUGCC [G22A A26C]; 0.79
7. GGCAGAACUCAACACAGCGUGGCAAAGUGGCUGUGGAUAGACUGCC [G7A C37A]; 0.18
8. UGCAGAGCUCAACACAGCGUGGCAAAGUGUCUGUGGCUAGACUGCC [G1U G30U]; 0.59

Here's the next entry for you.
Query: Given GGCAGAGCUCAACACAGGGUGGCAAAGUGGCGGUGGCUAGACUGCC [C18G U32G] , state its recorded self-cleavage.
Reply: 0.06
